- Test system: KB tumor-bearing athymic nude mice
- method summary: Biodistribution of 177Lu-RedFols in KB tumor-bearing mice
- Format: in vivo, mouse
- condition label: 4 h p.i.
value kind: Intestines, accumulated activity (% IA/g)
Answer in % IA/g, number only, no unit symbol.

Consider the reported Intestines, accumulated activity for these molecules:
CN1c2c(nc(N)[nH]c2=O)NC[C@H]1CNc1ccc(C(=O)N[C@@H](CCC(=O)N[C@@H](CCCCNC(=O)CN2CCN(CC(=O)O)CCN(CC(=O)O)CCN(CC(=O)O)CC2)C(=O)N[C@@H](CCCCNC(=O)CCCCc2ccc(I)cc2)C(=O)O)C(=O)O)cc1 [[^177Lu]Lu-6R-RedFol-24, metal not drawn]: 0.83
CN1c2c(nc(N)[nH]c2=O)NCC1CNc1ccc(C(=O)NC(CCC(=O)NC(CCCCNC(=O)CN2CCN(CC(=O)[O-])CCN(CC(=O)[O-])CCN(CC(=O)[O-])CC2)C(=O)NC(CCCCNC(=O)c2ccc(CNC(=O)CCCc3ccc(I)cc3)cc2)C(=O)O)C(=O)O)cc1.[177Lu+3] (stereo not drawn) [[^177Lu]Lu-6S-RedFol-3]: 1.7
CN1c2c(nc(N)[nH]c2=O)NCC1CNc1ccc(C(=O)NC(CCC(=O)NC(CCCCNC(=O)CN2CCN(CC(=O)[O-])CCN(CC(=O)[O-])CCN(CC(=O)[O-])CC2)C(=O)NC(CCCCNC(=O)c2ccc(CNC(=O)CCCCc3ccc(I)cc3)cc2)C(=O)O)C(=O)O)cc1.[177Lu+3] (stereo not drawn) [[^177Lu]Lu-6S-RedFol-25]: 1.2
CN1c2c(nc(N)[nH]c2=O)NC[C@H]1CNc1ccc(C(=O)N[C@@H](CCC(=O)N[C@@H](CCCCNC(=O)CN2CCN(CC(=O)O)CCN(CC(=O)O)CCN(CC(=O)O)CC2)C(=O)N[C@@H](CCCCNC(=O)c2ccc(CNC(=O)CCCCc3ccc(I)cc3)cc2)C(=O)O)C(=O)O)cc1 [[^177Lu]Lu-6R-RedFol-25, metal not drawn]: 0.78

Lab note: next molecule to report on.
Any idea what Intestines, accumulated activity was measured for CN1c2c(nc(N)[nH]c2=O)NC[C@H]1CNc1ccc(C(=O)N[C@@H](CCC(=O)N[C@@H](CCCCNC(=O)CN2CCN(CC(=O)O)CCN(CC(=O)O)CCN(CC(=O)O)CC2)C(=O)N[C@@H](CCCCNC(=O)c2ccc(CNC(=O)CCCc3ccc(I)cc3)cc2)C(=O)O)C(=O)O)cc1 [[^177Lu]Lu-6R-RedFol-3, metal not drawn] ? 2.0

---

- Tested on: KB tumor-bearing athymic nude mice
- method summary: Biodistribution of 177Lu-RedFols in KB tumor-bearing mice
- Format: in vivo, mouse
- condition label: 24 h p.i.
Flag rule - Intestines, accumulated activity less than 0.3 % IA/g flags True; the remaining entries get False.

Given the entry CN1c2c(nc(N)[nH]c2=O)NC[C@H]1CNc1ccc(C(=O)N[C@@H](CCC(=O)N[C@@H](CCCCNC(=O)CN2CCN(CC(=O)O)CCN(CC(=O)O)CCN(CC(=O)O)CC2)C(=O)N[C@@H](CCCCNC(=O)c2ccc(CNC(=O)CCCCc3ccc(I)cc3)cc2)C(=O)O)C(=O)O)cc1 [[^177Lu]Lu-6R-RedFol-25, metal not drawn] , would its reported Intestines, accumulated activity be below 0.3 % IA/g? True

How about CN1c2c(nc(N)[nH]c2=O)NCC1CNc1ccc(C(=O)NC(CCC(=O)NC(CCCCNC(=O)CN2CCN(CC(=O)[O-])CCN(CC(=O)[O-])CCN(CC(=O)[O-])CC2)C(=O)NC(CCCCNC(=O)c2ccc(CNC(=O)CCCCc3ccc(I)cc3)cc2)C(=O)O)C(=O)O)cc1.[177Lu+3] (stereo not drawn) [[^177Lu]Lu-6S-RedFol-25] ? True

Can you handle CN1c2c(nc(N)[nH]c2=O)NC[C@H]1CNc1ccc(C(=O)N[C@@H](CCC(=O)N[C@@H](CCCCNC(=O)CN2CCN(CC(=O)O)CCN(CC(=O)O)CCN(CC(=O)O)CC2)C(=O)N[C@@H](CCCCNC(=O)c2ccc(CNC(=O)CCCc3ccc(I)cc3)cc2)C(=O)O)C(=O)O)cc1 [[^177Lu]Lu-6R-RedFol-3, metal not drawn] next? False

Moving on to the next compound: CN1c2c(nc(N)[nH]c2=O)NCC1CNc1ccc(C(=O)NC(CCC(=O)NC(CCCCNC(=O)CN2CCN(CC(=O)[O-])CCN(CC(=O)[O-])CCN(CC(=O)[O-])CC2)C(=O)NC(CCCCNC(=O)c2ccc(CNC(=O)CCCc3ccc(I)cc3)cc2)C(=O)O)C(=O)O)cc1.[177Lu+3] (stereo not drawn) [[^177Lu]Lu-6S-RedFol-3] False

Try this compound too: CN1c2c(nc(N)[nH]c2=O)NC[C@H]1CNc1ccc(C(=O)N[C@@H](CCC(=O)N[C@@H](CCCCNC(=O)CN2CCN(CC(=O)O)CCN(CC(=O)O)CCN(CC(=O)O)CC2)C(=O)N[C@@H](CCCCNC(=O)CCCCc2ccc(I)cc2)C(=O)O)C(=O)O)cc1 [[^177Lu]Lu-6R-RedFol-24, metal not drawn] True

---

- System: KB tumor-bearing athymic nude mice
- method summary: Biodistribution of 177Lu-RedFols in KB tumor-bearing mice
- Format: in vivo, mouse
- condition label: 1 h p.i.
Recorded Kidneys, accumulated activity for the following compounds
Report the figure in % IA/g without appending any unit label.

Worked examples, 2 compounds total:
CN1c2c(nc(N)[nH]c2=O)NCC1CNc1ccc(C(=O)NC(CCC(=O)NC(CCCCNC(=O)CN2CCN(CC(=O)[O-])CCN(CC(=O)[O-])CCN(CC(=O)[O-])CC2)C(=O)NC(CCCCNC(=O)c2ccc(CNC(=O)CCCc3ccc(I)cc3)cc2)C(=O)O)C(=O)O)cc1.[177Lu+3] (stereo not drawn) [[^177Lu]Lu-6S-RedFol-3]: 12
CN1c2c(nc(N)[nH]c2=O)NCC1CNc1ccc(C(=O)NC(CCC(=O)NC(CCCCNC(=O)CN2CCN(CC(=O)[O-])CCN(CC(=O)[O-])CCN(CC(=O)[O-])CC2)C(=O)NC(CCCCNC(=O)c2ccc(CNC(=O)CCCCc3ccc(I)cc3)cc2)C(=O)O)C(=O)O)cc1.[177Lu+3] (stereo not drawn) [[^177Lu]Lu-6S-RedFol-25]: 38

Now for a further compound.
Entry CN1c2c(nc(N)[nH]c2=O)NC[C@H]1CNc1ccc(C(=O)N[C@@H](CCC(=O)N[C@@H](CCCCNC(=O)CN2CCN(CC(=O)O)CCN(CC(=O)O)CCN(CC(=O)O)CC2)C(=O)N[C@@H](CCCCNC(=O)c2ccc(CNC(=O)CCCc3ccc(I)cc3)cc2)C(=O)O)C(=O)O)cc1 [[^177Lu]Lu-6R-RedFol-3, metal not drawn] has what Kidneys, accumulated activity? 8.0

---

- Tested on: KB tumor-bearing athymic nude mice
- method summary: Biodistribution of 177Lu-RedFols in KB tumor-bearing mice
- Type: in vivo, mouse
- condition label: 1 h p.i.
Just a reminder that ties go to no (0): only Spleen, accumulated activity strictly below 2 % IA/g counts as yes (1).

CN1c2c(nc(N)[nH]c2=O)NC[C@H]1CNc1ccc(C(=O)N[C@@H](CCC(=O)N[C@@H](CCCCNC(=O)CN2CCN(CC(=O)O)CCN(CC(=O)O)CCN(CC(=O)O)CC2)C(=O)N[C@@H](CCCCNC(=O)CCCCc2ccc(I)cc2)C(=O)O)C(=O)O)cc1 [[^177Lu]Lu-6R-RedFol-24, metal not drawn]: yes (1)
CN1c2c(nc(N)[nH]c2=O)NCC1CNc1ccc(C(=O)NC(CCC(=O)NC(CCCCNC(=O)CN2CCN(CC(=O)[O-])CCN(CC(=O)[O-])CCN(CC(=O)[O-])CC2)C(=O)NC(CCCCNC(=O)c2ccc(CNC(=O)CCCc3ccc(I)cc3)cc2)C(=O)O)C(=O)O)cc1.[177Lu+3] (stereo not drawn) [[^177Lu]Lu-6S-RedFol-3]: no (0)
CN1c2c(nc(N)[nH]c2=O)NC[C@H]1CNc1ccc(C(=O)N[C@@H](CCC(=O)N[C@@H](CCCCNC(=O)CN2CCN(CC(=O)O)CCN(CC(=O)O)CCN(CC(=O)O)CC2)C(=O)N[C@@H](CCCCNC(=O)c2ccc(CNC(=O)CCCc3ccc(I)cc3)cc2)C(=O)O)C(=O)O)cc1 [[^177Lu]Lu-6R-RedFol-3, metal not drawn]: no (0)
CN1c2c(nc(N)[nH]c2=O)NC[C@H]1CNc1ccc(C(=O)N[C@@H](CCC(=O)N[C@@H](CCCCNC(=O)CN2CCN(CC(=O)O)CCN(CC(=O)O)CCN(CC(=O)O)CC2)C(=O)N[C@@H](CCCCNC(=O)c2ccc(CNC(=O)CCCCc3ccc(I)cc3)cc2)C(=O)O)C(=O)O)cc1 [[^177Lu]Lu-6R-RedFol-25, metal not drawn]: yes (1)

// switching to the query compound
Dear reviewer, please state whether CN1c2c(nc(N)[nH]c2=O)NCC1CNc1ccc(C(=O)NC(CCC(=O)NC(CCCCNC(=O)CN2CCN(CC(=O)[O-])CCN(CC(=O)[O-])CCN(CC(=O)[O-])CC2)C(=O)NC(CCCCNC(=O)c2ccc(CNC(=O)CCCCc3ccc(I)cc3)cc2)C(=O)O)C(=O)O)cc1.[177Lu+3] (stereo not drawn) [[^177Lu]Lu-6S-RedFol-25] has Spleen, accumulated activity strictly beneath 2 % IA/g. yes (1)

Reference source for all entries: paper PMC10486429
